Tested on: HCT-116 colon
Assay: NCI tumour cell line growth inhibition, 48 h
observed-property: TGI

C#CCN(N=O)C(=O)NC(CCCCNC(=O)OCc1ccccc1)C(=O)OCc1ccccc1 (configuration not stated) | > 100 µM
C[N+]1=C(c2cccnc2/C=N/O)OCC1(C)C | > 100 µM
Cc1ccsc1/C=N/NC1=NCCN1 | > 100 µM
O=C1NC(=O)C(C(=O)C(=O)Nc2cc(Cl)ccc2Cl)C(=O)N1 | > 100 µM
c1ccc2c(c1)[nH]c1cnc3c4ncccc4[nH]c3c12 | > 100 µM

Query block: Answer with the recorded TGI of `C=C1CC[C@@]2(C)[C@@H]([C@@H]1C)[C@H]1CC[C@@H]3[C@@]4(C)CC[C@H](O)C(C)(C)[C@@H]4CC[C@@]3(C)[C@]1(C)C[C@@H]2O` only.
Result block: > 23.9 µM

Query block: Please report the measured TGI for CC(=O)c1ccc(N2C(=O)C3c4[nH]c5ccccc5c4C4CCC(C(C)(C)C)CC4C3C2=O)cc1 (configuration not stated)
Result block: 30.7 µM

Values were extracted from PubChem BioAssay (NCI).
